Tgt: T1, Recombinant human CD4 (R&D Systems, Cat. 10327-CD) (human, UniProt P01730 26-390, limits assumed)
T1 construct: Bought soluble recombinant protein used as analyte at 100 nM; also called huCD4
Assay explanation: BLI (Octet Red384), non-clonal supernatant on AMC sensor, 100 nM human CD4
So I've got a bunch of binders here, and I need their Response values.
Form field (numeric): enter value without unit.

Noted for 75110_02I18A (antibody, V domains shown, Non-clonal AlivaMab Mouse Kappa hybridoma supernatant, captured by anti-mouse IgG Fc (human V regions, mouse Fc)) VH: EVQVVESGGGLVQPGGSLRLSCAASGFTFSSYDMHWVRQATGKGLEWVSTIGTAGDTYYPGSVKGRFTISRENAKNSLYLQMNSLRAGDTAVYYCARGGYYYYGMDVWGQGTTVTVSS VL: EIVLTQSPGTLSLSPGERATLSCRASQSVSSSYLAWYQQKPGQSPRLLIHGASSRATGIPDRVSGSGSGTDFTLTISRLEPEDFAVYYCQQYGSSPFTFGPGTKVDIK : its Response reads 0.16

The reported Response of the binder 75110_06C16A (antibody, V domains shown, Non-clonal AlivaMab Mouse Kappa hybridoma supernatant, captured by anti-mouse IgG Fc (human V regions, mouse Fc)) VH: QVQLQESGPGLVTPSETLSLSCTVSGGSISDYYWSWIRQPGGKGLEWIGRIYSSGSTNYNPSLKSRVTMSVDTSKNQFSLKLSSVTAADTAVYFCARDREDYYYYGMDVWGQGTTVTVSS VL: DIQMTQSPSSLSASVGDRVTITCQASHDISNYLNWYQQKPGKAPKLLIYAASNLETGVPSRFSGSGSGTDFSFTISSLQPEDIATYYCQQYDHLPLTFGGGTKVEIK was 0.07

Entry 75110_04H17A (antibody, V domains shown, Non-clonal AlivaMab Mouse Kappa hybridoma supernatant, captured by anti-mouse IgG Fc (human V regions, mouse Fc)) VH: QVQLQESGPGLVKPSETLSLTCTVSGGSISTYYWSWIRQSAGKGLEWIGRIYTSERPNYNPSLKSRVTMSVDTSKNQFSLKLNSVSAADTAVYYCARELERPYYYGMDVWGQGTTVTVSS VL: DVQMTQSPSSLSASVGGRVTITCQASQDISNYLNWYQQKPGKAPKLLIYYASNLETGVPSRFSGSGSGTDFTFTISSLQPEDFATYYCQQYDNLPLTFGGGTKVEIK ; Response = 0.16

Lab note: measured Response of 75110_07J02A (antibody, V domains shown, Non-clonal AlivaMab Mouse Kappa hybridoma supernatant, captured by anti-mouse IgG Fc (human V regions, mouse Fc)) VH: EVQLVESGGGLVQPGGSLRLSCAASGFTFSSYWMSWVRQAPGKGLEWVANIKEDGSEKYYVDSVKGRFTISRDNAKNSLYLQMNSLRAEDTAVYYCARDGSYSGYGMDVWGQGTTVTVSS VL: AIQMTQSPSSLSASVGDRVTITCRASQGIRNDLGWYQQKPGKAPKLLIYAASSLQSGVPSRFSGRGSGTDFALTISSLQPEDFATYYCLLDYNYPYTFGQGTRLEIK was 0.13

Noted for 75110_02E22A (antibody, V domains shown, Non-clonal AlivaMab Mouse Kappa hybridoma supernatant, captured by anti-mouse IgG Fc (human V regions, mouse Fc)) VH: QVQLQESGPGLVKPSETLSLTCTVSGGSISSFYWSWIRQPAGKGLEWIGRIYTSGSTNYNPSLKSRVTMSVDTSKNQFSLKLSSVTAADTAVYYCARELEKRNYYGMDVWGQGTTVTVSS VL: DIQMTQSPSSLSASVGDRVTITCQASHDISNYLNWYQQKPGKAPKLLIFDASTLETGVPSRFSGSGSGTYFTFTIRSLQPEDIATYYCQQYDSLPLTFGGGTKVEIK : its Response reads 0.18

Response recorded for this binder, 75110_08M20A (antibody, V domains shown, Non-clonal AlivaMab Mouse Kappa hybridoma supernatant, captured by anti-mouse IgG Fc (human V regions, mouse Fc)) VH: QVQLQESDPGLVKPSETLSLTCTVSGGSISSYYWSWIRQPAGKGLEWIGRIYASGSTNYNPSLKSRVTMSVDTSKNQFSLKLSSVTAADTAVYYCARDREGYYYYGMDVWGQGTTVTVSS VL: DIQMTQSPSSLSASVGDRVTITCQASQDISKYLNWYQQKPGKAPNLLIYAASNLETGVPSRFSGSGSGTDFTFTISSLQPEDIAAYYCQQYDSLPITFGQGTRLEIK , is 0.19

// Response lookup, binder = 75110_06K03A (antibody, V domains shown, Non-clonal AlivaMab Mouse Kappa hybridoma supernatant, captured by anti-mouse IgG Fc (human V regions, mouse Fc)) VH: QVQLQESGPGLVKPSETLSLTCTVSGGSISTYYWSWIRQPAGKGLEWIGRINTSGSTTYNPSLKSRVTMSVDTSKNQFSLKLSSVTAADTAVYYCARELERYYYYGMDVWGQGTTVTVSS VL: DIQMTQSPSSLSASVGDRVTITCQASQDISNYLNWYQQKPGKAPKLLIYYASILETGVPSRFSGSGSGTDFTFTISSLQPEDIATYYCQQYDSLPLTFGGGTKVEIK , result: 0.14

Values from patent US20220112288A1
